System: HCV proteins in Rep5.1 cells (replicon cell line)
test_method_notes: Inhibitory activity of HCV: cell-based ELISA in replicon cell line Rep5.1 (decrease of HCV proteins)
Parameters: species or system hepatitis C virus
condition_summary: Hepatitis C virus, 72 h, Rep5.1 cells, 72 hours with drug, decrease of HCV proteins measured by HCV antibody; Table 1; read-out: Level (IC50 values classified)
pIC50: −log10 of the molar value.
metric_name: pIC50

See these solved cases before continuing.
| compound | result_value |
| --- | --- |
| CC1=C(C(=O)SCCc2ccccc2)C(CO)NC(=S)N1 (centres unmarked) | < 4.70 |
| COc1ccc(COC(=O)C2=C(C)NC(=S)NC2)c(F)c1 | 5.00 to 6.00 |
| CC1=C(C(=O)OCC2(c3ccc(Cl)cc3Cl)CC2)C(CO)NC(=S)N1 (centres unmarked) | 4.70 to 5.00 |
| CC1=C(C(=O)OCCc2ccc(Cl)cc2)CNC(=S)N1 | > 6.00 |
| CC1=C(C(=O)OCCc2cccc([N+](=O)[O-])c2)C(COC(=O)c2ccc(C(=O)O)cc2)NC(=S)N1 (centres unmarked) | 5.00 to 6.00 |
| CC1=C(C(=O)OCCc2csc([N+](=O)[O-])c2)CNC(=S)N1 | > 6.00 |
| COCCN(C)c1ccc(CCCOC(=O)C2=C(C)NC(=S)NC2CF)cc1 (centres unmarked) | < 4.70 |
| CC1=C(C(=O)OCc2ccccn2)CNC(=S)N1 | < 4.70 |

// each listed compound needs a value for pIC50
1. CC1=C(C(=O)OCCCCCC(=O)O)CNC(=S)N1
2. CC1=C(C(=O)OCc2cc3ccsc3s2)CNC(=S)N1
3. CC1=C(C(=O)OCCOCCc2ccsc2)C(CO)NC(=S)N1 (centres unmarked)
4. CC1=C(C(=O)OCc2cc(C)on2)CNC(=S)N1

(A)
["< 4.70", "> 6.00", "< 4.70", "< 4.70"]

For every item in the list below, what is its measured pIC50?
1. CC1=C(C(=O)OCc2ccc(-c3cccs3)s2)C(CF)NC(=S)N1 (centres unmarked)
2. CCc1ccc(COC(=O)C2=C(C)NC(=S)NC2)s1
3. CC1=C(C(=O)OCCCc2ccco2)CNC(=S)N1

(A)
1. 5.00 to 6.00
2. 5.00 to 6.00
3. > 6.00

Return reported pIC50 values for all items listed beneath this line.
1. CC1=C(C(=O)OC(C)CCc2cccs2)C(CF)NC(=S)N1 (centres unmarked)
2. COc1ccccc1CCOC(=O)C1=C(C)NC(=S)NC1

(A)
1: 5.00 to 6.00; 2: > 6.00

----------
Give measured pIC50 for each item. Keep answers brief.
Test system: HCV proteins in Rep5.1 cells (replicon cell line)
test_method_notes: Inhibitory activity of HCV: cell-based ELISA in replicon cell line Rep5.1 (decrease of HCV proteins)
Parameters: species or system hepatitis C virus
condition_summary: Hepatitis C virus, 72 h, Rep5.1 cells, 72 hours with drug, decrease of HCV proteins measured by HCV antibody; Table 1; read-out: Level (IC50 values classified)
Description: In order to, screen and evaluate the anti-HCV therapeutic agents in cell level, the following experiments are carried out using a replicon cell line, Rep5.1 [Lohmann, et al., Replication of subgenomic hepatitis C virus RNAs in a hepatoma cell line. […] Rep5.1 cells, the replicon cell line, are cultured in DMEM-10 containing 500 μg/ml of G418. […] After 72 hours, the remaining cells are fixed by methanol/acetone (50/50, v/v), and the decrease of HCV proteins is measured by using HCV antibody. […]
pIC50: −log10 of the molar value.

Batch of 6 compounds: report pIC50 for each.
1. CC1=C(C(=O)OCc2ccccc2SCC(C)C)CNC(=S)N1
2. CC1=C(C(=O)OCCc2ccoc2)CNC(=S)N1
3. CC1=C(C(=O)OCCc2c(F)cc(F)cc2F)C(CO)NC(=S)N1 (stereo not drawn)
4. CC1=C(C(=O)OCCc2ccc(C)s2)CNC(=S)N1
5. CC1=C(C(=O)OCc2ccccc2)C(CO)NC(=S)N1 (stereo not drawn)
6. CCOC(=O)CCCCCOC(=O)C1=C(C)NC(=S)NC1

(A)
1: 5.00 to 6.00; 2: 5.00 to 6.00; 3: 5.00 to 6.00; 4: > 6.00; 5: < 4.70; 6: < 4.70

Please give pIC50 for each item listed below.
1. CC1=C(C(=O)OCCc2ccccc2C)CNC(=S)N1
2. CC1=C(C(=O)OCCSc2nc3ccccc3s2)CNC(=S)N1
3. CCCCCCOC(=O)C1=C(C)NC(=S)NC1

(A)
1: > 6.00; 2: > 6.00; 3: > 6.00

----------
Assign pIC50 to each entry below.
Tested on: HCV proteins in Rep5.1 cells (replicon cell line)
test_method_notes: Inhibitory activity of HCV: cell-based ELISA in replicon cell line Rep5.1 (decrease of HCV proteins)
Set-up: species or system hepatitis C virus
condition_summary: Hepatitis C virus, 72 h, Rep5.1 cells, 72 hours with drug, decrease of HCV proteins measured by HCV antibody; Table 1; read-out: Level (IC50 values classified)
pIC50: −log10 of the molar value.

# count of solved cases: 3
| sample_smiles | pIC50 |
| --- | --- |
| CC1=C(C(=O)OCCOc2ccccc2)CNC(=S)N1 | 5.00 to 6.00 |
| CC1=C(C(=O)OCc2scc(C)c2Cl)CNC(=S)N1 | > 6.00 |
| CC1=C(C(=O)OCCCc2cccnc2)CNC(=S)N1 | < 4.70 |

Give pIC50 for all compounds that follow.
1. CC1=C(C(=O)OCCc2ccsc2)[C@H](CF)NC(=S)N1
2. CC1=C(C(=O)OCc2ccc(OC(=O)OC(C)(C)C)cc2)CNC(=S)N1
3. COCC1=C(C(=O)OCc2ccccc2)CNC(=S)N1
4. CC1=C(C(=O)OCCS(=O)(=O)c2ccc(C)cc2)CNC(=S)N1

(A)
1. 5.00 to 6.00
2. 4.70 to 5.00
3. 4.70 to 5.00
4. 4.70 to 5.00

----------
System: HCV proteins in Rep5.1 cells (replicon cell line)
test_method_notes: Inhibitory activity of HCV: cell-based ELISA in replicon cell line Rep5.1 (decrease of HCV proteins)
Set-up: species or system hepatitis C virus
condition_summary: Hepatitis C virus, 72 h, Rep5.1 cells, 72 hours with drug, decrease of HCV proteins measured by HCV antibody; Table 1; read-out: Level (IC50 values classified)
pIC50: −log10 of the molar value.
Assign pIC50 to each entry below.

Reference set (5 entries):
| compound | assayed_target | pIC50 |
| --- | --- | --- |
| CC1=C(C(=O)OCc2ccccc2S(=O)(=O)CC(C)C)CNC(=S)N1 [Compound 113] | HCV proteins in Rep5.1 cells (replicon cell line) | < 4.70 |
| CC1=C(C(=O)OCCc2ccc(N(C)C)cc2)C(CO)NC(=S)N1 (stereo not drawn) [12″] | HCV proteins in Rep5.1 cells (replicon cell line) | < 4.70 |
| COC1=C(C(=O)OCc2ccccc2)CNC(=S)N1 [Compound 63] | HCV proteins in Rep5.1 cells (replicon cell line) | < 4.70 |
| CC1=C(C(=O)OCc2ccccc2)C(C(F)(F)F)NC(=S)N1 (stereo not drawn) [Compound 234] | HCV proteins in Rep5.1 cells (replicon cell line) | < 4.70 |
| CCN(CC)c1ccc(CCOC(=O)C2=C(C)NC(=S)NC2CO)cc1[N+](=O)[O-] (stereo not drawn) [91″] | HCV proteins in Rep5.1 cells (replicon cell line) | > 6.00 |

Okay, now this compound:
(Q) Provide one value: measured pIC50 of COc1ccccc1COC(=O)C1=C(C)NC(=S)NC1 [Compound 65]
(A) > 6.00

----------
I'd appreciate it if you could supply IC50 values for the items below.
System: HCV proteins in Rep5.1 cells (replicon cell line)
test_method_notes: Inhibitory activity of HCV: cell-based ELISA in replicon cell line Rep5.1 (decrease of HCV proteins)
Design: species or system hepatitis C virus
condition_summary: Hepatitis C virus, 72 h, Rep5.1 cells, 72 hours with drug, decrease of HCV proteins measured by HCV antibody; Table 1; read-out: Level (IC50 values classified)

Answered examples (8):
| molecule | IC50 |
| --- | --- |
| CC1=C(C(=O)OCCOCCc2ccsc2)CNC(=S)N1 | 1 to 10 µM |
| CC1=C(C(=O)OCCc2ccc(N3CCCCC3)c([N+](=O)[O-])c2)C(CO)NC(=S)N1 (centres unmarked) | < 1 µM |
| COc1cscc1CCOC(=O)C1=C(C)NC(=S)NC1 | < 1 µM |
| CC1=C(C(=O)OCc2cccc(OCc3ccccc3)c2)CNC(=S)N1 | < 1 µM |
| CCc1ccc(COC(=O)C2=C(C)NC(=S)NC2)cc1 | < 1 µM |
| CCOc1ccc(CCOC(=O)C2=C(C)NC(=S)NC2CO)cc1 (centres unmarked) | 1 to 10 µM |
| CC1=C(C(=O)OCCc2ccc(Cl)cc2)C(CO)NC(=S)N1 (centres unmarked) | 1 to 10 µM |
| CCOc1ccccc1COC(=O)C1=C(C)NC(=S)NC1 | < 1 µM |

Field: IC50. Fill in for each record below.
1. CC1=C(C(=O)OCCc2ccsc2)C(C(F)(F)F)NC(=S)N1 (centres unmarked)
2. CC1=C(C(=O)OCc2ccc(-c3ccccc3)cc2)CNC(=S)N1
3. CC1=C(C(=O)OCC(Br)=CBr)CNC(=S)N1

(A)
1. > 20 µM
2. < 1 µM
3. < 1 µM
